# TEST NAME: Example 3 clinical trial: vortioxetine plasma levels and simulated AUC0-24
# Assay type: in vivo
# STATED CONDITIONS: human, other: intravenous infusion plus oral tablets, VOR IV + VOR oral, Day 0, 24 hours
PROPERTY LABEL: concentration at 24 h (ng/mL)
Report the figure in ng/mL without appending any unit label.

IN: Recorded concentration at 24 h for Cc1ccc(Sc2ccccc2N2CCNCC2)c(C)c1 [VOR IV + VOR oral] , please?
OUT: 8.6

* * *

# TEST NAME: Example 3 clinical trial: vortioxetine plasma levels and simulated AUC0-24
# Format: in vivo
# STATED CONDITIONS: human, oral, 10 mg/day, day 14, PBO IV+VOR oral treated patients, popPK simulation based on observed data
PROPERTY LABEL: AUC(0-t) (ng·h/mL)
Report the figure in ng·h/mL without appending any unit label.

IN: Recorded AUC(0-t) for Cc1ccc(Sc2ccccc2N2CCNCC2)c(C)c1 [PBO IV + VOR oral] , please?
OUT: 230
